# pIC50 values compiled below
# System: phosphorylation of Cdc2 Y15 (Wee1 substrate) in A427 cells
# test.details: Phosphorylated Cdc2 MSD Electrochemiluminescence Assay
# Type: cell-based
# measurement.context: Homo sapiens, A-427, read-out: A427 pCDC2 MSD IC50
pIC50: −log10 of the molar value.

compound | experimental.value
CN1CC2CC1CN2c1ccc(Nc2ncc3c(n2)N(c2cccc(C(F)F)n2)[C@@H]2CC(C)(C)OC[C@]32C)cc1 (stereo in doubt) [Example 814] | 6.00 to 7.00

# next compound below
Identify the measured pIC50 of CC[C@@]1(O)CCc2ccc(N3c4nc(Nc5ccn(C6CCN(C)CC6)c(=O)c5)ncc4[C@@]4(C)COC(C)(C)C[C@@H]34)nc21 [Example 812] for phosphorylation of Cdc2 Y15 (Wee1 substrate) in A427 cells. 6.00 to 7.00

###

# measured.target: Wee1 kinase domain (Homo sapiens)
# Construct: Wee1 kinase domain was purchased from Carna (catalog #05-177); purchased Carna 05-177
# Sequence (P30291 299-569 limits assumed): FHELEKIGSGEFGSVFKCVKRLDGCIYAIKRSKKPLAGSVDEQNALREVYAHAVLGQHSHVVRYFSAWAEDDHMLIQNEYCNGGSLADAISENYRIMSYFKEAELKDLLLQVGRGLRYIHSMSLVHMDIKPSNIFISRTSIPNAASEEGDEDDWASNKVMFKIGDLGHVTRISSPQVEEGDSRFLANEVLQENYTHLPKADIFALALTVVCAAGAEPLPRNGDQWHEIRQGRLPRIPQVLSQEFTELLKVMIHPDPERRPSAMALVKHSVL
# test.details: Wee1 Kinase Biochemical Assay (ADP-Glo)
# measurement.context: class symbols; 1 nM Wee1 enzyme, 15 uM ATP, 4 hours at 25° C.
# Experimental: Wee1 Kinase Biochemical Assay Protocol Wee1 kinase domain was purchased from Carna (catalog #05-177). Wee1 kinase activity was determined with Poly(Lys,Tyr 4:1) hydrobromide as a substrate (Sigma-Aldrich) and by measuring ADP production using the ADP-Glo Kinase Assay kit (Promega) following the manufacturer's instructions. […] The ADP-Glo signal was measured using the Envision plate reader and the percentage inhibition of kinase activity calculated for each inhibitor tested. […]
pIC50: −log10 of the molar value.
# pIC50 values compiled below

Some solved cases for reference:
compound | experimental.value
CNCc1cccc(N2c3nc(Nc4ccc([C@@H]5CCNC5)cc4)ncc3[C@]3(C)COC(C)(C)C[C@H]23)n1 (single isomer, unassigned) | 6.00 to 7.00
CC1(C)C[C@H]2N(c3cccc(N=S(C)(C)=O)n3)c3nc(NC(=O)OC4CCOCC4)ncc3[C@@]2(C)CO1 (single isomer, unassigned) | > 8.00
CC1(C)C[C@H]2N(c3cccc(N=S(C)(C)=O)n3)c3nc(NC(=O)[C@@H]4C[C@H]4c4cccnc4)ncc3[C@@]2(C)CO1 (single isomer, unassigned) | > 8.00

Return reported pIC50; argument: "CC1(C)C[C@H]2N(c3cccc(N4CCOC4=O)n3)c3nc(Nc4ccc([C@H]5CNC[C@H]5F)cc4)ncc3[C@@]2(C)CO1" > 8.00

# query: pIC50 of entry CN=[S@@](C)(=O)c1cccc(N2c3nc(Nc4ccc(C5CCN(C)CC5)cc4)ncc3[C@@]3(C)COC(C)(C)C[C@@H]23)n1 (single isomer, unassigned) > 8.00

###

In this section, each of the molecules is paired with its reported IC50.
# measured.target: Wee1 kinase domain (Homo sapiens)
# Construct: Wee1 kinase domain was purchased from Carna (catalog #05-177); purchased Carna 05-177
# test.details: Wee1 Kinase Biochemical Assay (ADP-Glo)
# measurement.context: Wee1 kinase domain, 15 uM ATP, ADP-Glo
# Experimental: Wee1 Kinase Biochemical Assay Protocol Wee1 kinase domain was purchased from Carna (catalog #05-177). Wee1 kinase activity was determined with Poly(Lys,Tyr 4:1) hydrobromide as a substrate (Sigma-Aldrich) and by measuring ADP production using the ADP-Glo Kinase Assay kit (Promega) following the manufacturer's instructions. […] The ADP-Glo signal was measured using the Envision plate reader and the percentage inhibition of kinase activity calculated for each inhibitor tested. […]

Please review the following examples before continuing.
molecule | metric.name | experimental.value
C[C@H]1COC(=O)N1c1cccc(N2c3nc(Nc4ccc(N5C[C@@H]6C[C@H]5CN6C)cc4)ncc3[C@]3(C)COC(C)(C)C[C@H]23)n1 (single isomer, unassigned) | IC50 | 10 to 100 nM
CN[C@@H](C)c1cccc(N2c3nc(Nc4ccn(C5CCOCC5)c(=O)c4)ncc3[C@@]3(C)COC(C)(C)C[C@@H]23)n1 (single isomer, unassigned) | IC50 | < 10 nM
CNCc1ccc(Nc2ncc3c(n2)N(c2cccc(N4C(=O)OC[C@@H]4C)n2)[C@H]2CC(C)(C)OC[C@@]32C)cc1 (single isomer, unassigned) | IC50 | 10 to 100 nM
CC1(C)C[C@H]2N(c3cccc(N=S(C)(C)=O)n3)c3nc(Nc4ccc(C5CNC5)c(F)c4)ncc3[C@@]2(C)CO1 (single isomer, unassigned) | IC50 | < 10 nM

So what's the measured IC50 for this one? CN1CCC(n2ccc(Nc3ncc4c(n3)N(c3cccc(N=S(C)(C)=O)n3)C3CC(C)(C)OCC43C)cc2=O)CC1 (single isomer, unassigned) 100 to 1000 nM
